// reported pIC50 for each item listed
# Target or test system: 3T3 cell line genetically engineered to express human EGF-R (Homo sapiens, UniProt P00533)
# Assay protocol: EGF-induced BrdU incorporation assay
# Conditions: read-out: BrdU EGF driven IC50
pIC50: −log10 of the molar value.
Experimental endpoint: pIC50

| Smiles record | Target or test system | Assay value |
| --- | --- | --- |
| Cc1c[nH]c(C=C2C(=O)Nc3cc(Cl)ccc32)c1CCC(=O)O | 3T3 cell line genetically engineered to express human EGF-R (Homo sapiens, UniProt P00533) | < 4.30 |
| COc1ccc2c(c1)NC(=O)/C2=C\c1[nH]cc(C)c1CCC(=O)O | 3T3 cell line genetically engineered to express human EGF-R (Homo sapiens, UniProt P00533) | < 4.30 |
| COc1ccc(/C=C2/C(=O)Nc3ccc(CCN4CCOCC4)cc32)cc1-c1ccsc1 | 3T3 cell line genetically engineered to express human EGF-R (Homo sapiens, UniProt P00533) | < 4.30 |

====

# Target or test system: PDGFR-β (Homo sapiens)
# Assay protocol: Biochemical PDGFR assay (ELISA, PDGFR-β expressing NIH 3T3 cell lysate)
# Conditions: read-out: bio PDGF IC50
Lab note: anything with IC50 below 30 µM is marked TRUE; values at 30 µM or higher are marked FALSE.

| Smiles record | Target or test system | Assigned label |
| --- | --- | --- |
| Cc1[nH]c2ccccc2c1/C=C1\C(=O)Nc2ccc(N)cc21 | PDGFR-β (Homo sapiens) | FALSE |
| CC(=O)Nc1ccc2c(c1)NC(=O)/C2=C/c1ccc(OCCN2CCOCC2)c(C(C)(C)C)c1 | PDGFR-β (Homo sapiens) | FALSE |
| Cc1cccc2c1/C(=C/c1[nH]c3ccccc3c1C)C(=O)N2 | PDGFR-β (Homo sapiens) | FALSE |
| O=C1Nc2ccc(C(=O)O)cc2/C1=C/c1ccc2[nH]ccc2c1 | PDGFR-β (Homo sapiens) | FALSE |
| COc1ccc(/C=C2/C(=O)Nc3ccc(Br)cc32)cc1-c1ccccc1 | PDGFR-β (Homo sapiens) | FALSE |
| Cc1cc(CCC(=O)O)c(/C=C2\C(=O)Nc3ccc(Cl)cc32)[nH]1 | PDGFR-β (Homo sapiens) | TRUE |
| CC(=O)Nc1ccc2c(c1)NC(=O)/C2=C/c1ccc(OCCN2CCOCC2)c(C2CCCCC2)c1 | PDGFR-β (Homo sapiens) | FALSE |
| COc1ccc(/C=C2/C(=O)Nc3ccc(Cl)cc32)cc1-c1cccnc1 | PDGFR-β (Homo sapiens) | TRUE |
| CCOC(=O)c1c(C)[nH]c(/C=C2\C(=O)Nc3ccc(S(N)(=O)=O)cc32)c1CCCN1CCN(C)CC1 | PDGFR-β (Homo sapiens) | FALSE |
| Cc1[nH]c2ccccc2c1/C=C1\C(=O)Nc2ccc(S(N)(=O)=O)cc21 | PDGFR-β (Homo sapiens) | FALSE |
| Cc1ccc2c(c1)/C(=C/c1[nH]c3c(c1CCC(=O)O)CCCC3)C(=O)N2 | PDGFR-β (Homo sapiens) | FALSE |
| CCOC(=O)c1c(C)[nH]c(/C=C2\C(=O)Nc3ccc(OC)cc32)c1CCCN(C)C | PDGFR-β (Homo sapiens) | TRUE |
| NS(=O)(=O)c1ccc2c(c1)/C(=C/c1c[nH]c3ccccc13)C(=O)N2 | PDGFR-β (Homo sapiens) | FALSE |
| CCOC(=O)c1[nH]c(/C=C2\C(=O)Nc3ccccc32)c(CCC(=O)O)c1C | PDGFR-β (Homo sapiens) | FALSE |
| CCOC(=O)c1c(C)[nH]c(/C=C2\C(=O)Nc3ccc(C(=O)O)cc32)c1CCCN1CCN(C)CC1 | PDGFR-β (Homo sapiens) | FALSE |
| Cc1[nH]c2ccccc2c1/C=C1\C(=O)Nc2ccc(C(=O)O)cc21 | PDGFR-β (Homo sapiens) | TRUE |
| O=C(O)CCc1ccccc1/C=C1/C(=O)Nc2ccccc21 | PDGFR-β (Homo sapiens) | FALSE |
| CC1(C)CCc2cc(/C=C3/C(=O)Nc4ccc(Cl)cc43)ccc2O1 | PDGFR-β (Homo sapiens) | TRUE |
| CCOC(=O)c1c(C)[nH]c(/C=C2\C(=O)Nc3cccc(CCO)c32)c1CCCN1CCN(C)CC1 | PDGFR-β (Homo sapiens) | TRUE |
| COc1cccc(-c2cc(OC)c(OC)cc2/C=C2/C(=O)Nc3ccc(Cl)cc32)c1 | PDGFR-β (Homo sapiens) | FALSE |
| CCOC(=O)c1c(C)[nH]c(/C=C2\C(=O)Nc3ccc(OC)cc32)c1CCCN1CCN(C)CC1 | PDGFR-β (Homo sapiens) | TRUE |
| COc1ccc(/C=C2/C(=O)Nc3ccc(F)cc32)cc1C1CCCCC1 | PDGFR-β (Homo sapiens) | TRUE |
| CCOC(=O)c1c(C)[nH]c(/C=C2\C(=O)Nc3ccc(OC)cc32)c1CCCN1CCCC1 | PDGFR-β (Homo sapiens) | TRUE |
| Cc1cccc2c1/C(=C/c1cc3ccccc3[nH]1)C(=O)N2 | PDGFR-β (Homo sapiens) | FALSE |
| COc1ccc(/C=C2/C(=O)Nc3ccc(Cl)cc32)cc1-c1cccs1 | PDGFR-β (Homo sapiens) | FALSE |
| COc1ccc(-c2ccc3c(c2)NC(=O)/C3=C\c2[nH]c3c(c2CCC(=O)O)CCCC3)cc1 | PDGFR-β (Homo sapiens) | TRUE |
| O=C1Nc2ccccc2/C1=C/c1cc2ccccc2[nH]1 | PDGFR-β (Homo sapiens) | FALSE |

====

Below, each entry is listed alongside its reported pIC50.
# Target or test system: PDGFR-β (Homo sapiens, UniProt P09619)
# Sequence (P09619 33-1106): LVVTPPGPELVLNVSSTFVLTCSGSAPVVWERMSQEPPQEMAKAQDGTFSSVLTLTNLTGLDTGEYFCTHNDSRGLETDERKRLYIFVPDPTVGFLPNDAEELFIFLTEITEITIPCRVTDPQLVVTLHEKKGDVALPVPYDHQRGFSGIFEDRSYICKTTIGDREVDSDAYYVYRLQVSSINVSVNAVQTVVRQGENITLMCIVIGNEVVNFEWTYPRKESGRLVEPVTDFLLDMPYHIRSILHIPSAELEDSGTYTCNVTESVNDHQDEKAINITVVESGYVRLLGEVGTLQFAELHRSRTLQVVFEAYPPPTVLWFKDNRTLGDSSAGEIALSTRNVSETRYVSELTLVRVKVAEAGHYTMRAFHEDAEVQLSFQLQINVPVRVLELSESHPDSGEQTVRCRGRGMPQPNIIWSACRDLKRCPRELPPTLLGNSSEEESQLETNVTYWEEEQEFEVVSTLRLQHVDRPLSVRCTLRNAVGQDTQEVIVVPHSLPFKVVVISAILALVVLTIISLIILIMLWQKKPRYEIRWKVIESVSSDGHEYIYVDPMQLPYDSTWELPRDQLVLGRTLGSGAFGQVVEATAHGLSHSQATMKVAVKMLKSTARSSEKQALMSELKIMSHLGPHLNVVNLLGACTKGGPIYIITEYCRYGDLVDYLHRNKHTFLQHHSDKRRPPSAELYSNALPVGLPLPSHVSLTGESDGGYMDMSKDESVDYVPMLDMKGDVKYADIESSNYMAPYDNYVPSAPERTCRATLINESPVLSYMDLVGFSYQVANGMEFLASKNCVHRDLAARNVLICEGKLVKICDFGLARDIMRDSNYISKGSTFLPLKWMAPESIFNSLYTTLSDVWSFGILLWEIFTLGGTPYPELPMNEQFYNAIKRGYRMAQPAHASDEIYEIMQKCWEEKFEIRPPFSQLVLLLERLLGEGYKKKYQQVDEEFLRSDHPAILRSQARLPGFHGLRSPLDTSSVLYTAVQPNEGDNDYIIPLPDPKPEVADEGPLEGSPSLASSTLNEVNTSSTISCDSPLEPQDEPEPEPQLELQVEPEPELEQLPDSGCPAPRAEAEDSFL
# Assay protocol: Biochemical PDGFR assay (ELISA, PDGFR-β expressing NIH 3T3 cell lysate)
# Conditions: read-out: bio PDGF IC50
pIC50: −log10 of the molar value.

| Compound | Target or test system | Cmp | pIC50 |
| --- | --- | --- | --- |
| COc1cc(C)c(/C=C2/C(=O)Nc3ccc(F)cc32)cc1C(C)C [Example 30] | PDGFR-β (Homo sapiens, UniProt P09619) | < | 4.00 |
| COc1ccc(/C=C2/C(=O)Nc3ccc(F)cc32)cc1-c1ccccc1 [Example 37] | PDGFR-β (Homo sapiens, UniProt P09619) | < | 4.00 |
| NS(=O)(=O)c1ccc2c(c1)/C(=C/c1ccc3[nH]ccc3c1)C(=O)N2 [Example 185] | PDGFR-β (Homo sapiens, UniProt P09619) | < | 4.00 |
| CCOC(=O)c1c(C)[nH]c(/C=C2\C(=O)Nc3cc(-c4ccccc4OC)ccc32)c1CCC(=O)O [Example 110] | PDGFR-β (Homo sapiens, UniProt P09619) | = | 5.50 |
| CCOC(=O)c1[nH]c(/C=C2\C(=O)Nc3cc(OC)ccc32)c(CCC(=O)O)c1C [Example 141] | PDGFR-β (Homo sapiens, UniProt P09619) | = | 4.07 |
| COc1ccc(/C=C2/C(=O)Nc3cc(NC(C)=O)ccc32)cc1-c1ccsc1 [Example 18] | PDGFR-β (Homo sapiens, UniProt P09619) | = | 4.06 |
| CN(C)S(=O)(=O)c1ccc2c(c1)/C(=C/c1c[nH]c3ccccc13)C(=O)N2 [Example 188] | PDGFR-β (Homo sapiens, UniProt P09619) | < | 4.00 |
| CNS(=O)(=O)c1ccc2c(c1)/C(=C/c1cc3ccccc3[nH]1)C(=O)N2 [Example 173] | PDGFR-β (Homo sapiens, UniProt P09619) | = | 4.16 |
| Cc1[nH]c2ccccc2c1/C=C1\C(=O)Nc2ccc(S(=O)(=O)N(C)C)cc21 [Example 184] | PDGFR-β (Homo sapiens, UniProt P09619) | < | 4.00 |
| COc1cc(C)c(C=C2C(=O)Nc3cc(NC(C)=O)ccc32)cc1C(C)C [Example 27] | PDGFR-β (Homo sapiens, UniProt P09619) | < | 4.00 |
| CCOC(=O)c1[nH]c(/C=C2\C(=O)Nc3ccc(S(=O)(=O)NC)cc32)c(CCC(=O)O)c1C [Example 146] | PDGFR-β (Homo sapiens, UniProt P09619) | < | 4.00 |
| COc1ccc2c(c1)NC(=O)/C2=C\c1[nH]cc(C)c1CCC(=O)O [Example 217] | PDGFR-β (Homo sapiens, UniProt P09619) | = | 6.68 |
| COc1cc(C)c(/C=C2/C(=O)Nc3ccc(Br)cc32)cc1C(C)C [Example 36] | PDGFR-β (Homo sapiens, UniProt P09619) | < | 4.00 |
| Cc1c(/C=C2\C(=O)Nc3ccc(S(N)(=O)=O)cc32)[nH]c2ccccc12 [Example 175] | PDGFR-β (Homo sapiens, UniProt P09619) | = | 4.26 |
| CNS(=O)(=O)c1ccc2c(c1)/C(=C/c1[nH]c3ccccc3c1CCCN(C)C)C(=O)N2 [Example 149] | PDGFR-β (Homo sapiens, UniProt P09619) | = | 5.28 |
| CN(C)S(=O)(=O)c1ccc2c(c1)/C(=C/c1ccc3[nH]ccc3c1)C(=O)N2 [Example 183] | PDGFR-β (Homo sapiens, UniProt P09619) | < | 4.00 |
| NS(=O)(=O)c1ccc2c(c1)/C(=C/c1cc3ccccc3[nH]1)C(=O)N2 [Example 159] | PDGFR-β (Homo sapiens, UniProt P09619) | = | 4.13 |
| O=C1Nc2ccccc2/C1=C/c1[nH]c2c(c1CCC(=O)N1CCOCC1)CCCC2 [Example 200] | PDGFR-β (Homo sapiens, UniProt P09619) | = | 4.93 |
| CC1(C)CCc2cc(C=C3C(=O)Nc4ccc(Br)cc43)ccc2O1 (racemic) [Example 34] | PDGFR-β (Homo sapiens, UniProt P09619) | = | 4.25 |
| CCOC(=O)c1[nH]c(/C=C2\C(=O)Nc3ccc(Br)cc32)c(CCC(=O)O)c1C [Example 143] | PDGFR-β (Homo sapiens, UniProt P09619) | < | 4.00 |
| Cc1c[nH]c(/C=C2\C(=O)Nc3cccc(C)c32)c1CCC(=O)O [Example 218] | PDGFR-β (Homo sapiens, UniProt P09619) | = | 5.68 |
| CCOC(=O)c1c(C)[nH]c(/C=C2\C(=O)Nc3cccc(CCO)c32)c1CCCN1CCCC1 [Example 132] | PDGFR-β (Homo sapiens, UniProt P09619) | = | 6.19 |
| COc1cc(/C=C2/C(=O)Nc3ccccc32)c(-c2ccc3ccccc3c2)cc1OC [Example 62] | PDGFR-β (Homo sapiens, UniProt P09619) | < | 4.00 |
| CCOc1cccc(-c2cc(C=C3C(=O)Nc4ccccc43)ccc2OC)c1 [Example 46] | PDGFR-β (Homo sapiens, UniProt P09619) | < | 4.00 |
| CCOC(=O)c1c(C)[nH]c(/C=C2\C(=O)Nc3ccc(S(=O)(=O)NC)cc32)c1CCCN1CCCC1 [Example 126] | PDGFR-β (Homo sapiens, UniProt P09619) | = | 4.20 |
| CCOC(=O)c1[nH]c(/C=C2\C(=O)Nc3cccc(C)c32)c(CCC(=O)O)c1C [Example 139] | PDGFR-β (Homo sapiens, UniProt P09619) | < | 4.00 |
| CNS(=O)(=O)c1ccc2c(c1)/C(=C/c1ccc3[nH]ccc3c1)C(=O)N2 [Example 176] | PDGFR-β (Homo sapiens, UniProt P09619) | = | 4.10 |
| Nc1ccc2c(c1)/C(=C/c1cc3ccccc3[nH]1)C(=O)N2 [Example 160] | PDGFR-β (Homo sapiens, UniProt P09619) | = | 5.57 |
